Biological target: Retinoic acid receptor RXR-alpha (Homo sapiens) (UniProt P19793)
Sequence (whole entry): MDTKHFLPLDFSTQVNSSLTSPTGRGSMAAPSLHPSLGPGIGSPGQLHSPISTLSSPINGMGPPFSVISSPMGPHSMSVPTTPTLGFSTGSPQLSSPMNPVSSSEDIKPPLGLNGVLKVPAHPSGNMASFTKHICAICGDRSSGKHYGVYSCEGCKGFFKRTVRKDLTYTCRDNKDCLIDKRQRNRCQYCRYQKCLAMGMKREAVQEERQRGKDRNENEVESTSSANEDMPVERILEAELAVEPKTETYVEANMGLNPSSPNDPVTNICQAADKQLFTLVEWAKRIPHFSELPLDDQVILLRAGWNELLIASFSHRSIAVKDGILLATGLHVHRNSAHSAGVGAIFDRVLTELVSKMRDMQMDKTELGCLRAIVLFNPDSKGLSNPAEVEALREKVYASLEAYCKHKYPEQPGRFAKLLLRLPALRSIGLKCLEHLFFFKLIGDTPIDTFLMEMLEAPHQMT
Assay: Partial agonist activity at RXRalpha (unknown origin) expressed in COS1 cells after 18 hrs by luciferase reporter gene assay relative to bexarotene
Format: cell-based
Conditions: COS-1
Emax overview
Experimental Endpoint: Emax (%)

{"columns": ["Compound Structure", "Experimental Endpoint", "Test Result"],
 "data": [
  ["Cc1cc2c(cc1-n1c(N)nc3cc(C(=O)O)ccc31)C(C)(C)CCC2(C)C", "Emax", 103],
  ["Cc1cc2c(cc1-n1c(C(F)(F)F)nc3cc(C(=O)O)ccc31)C(C)(C)CCC2(C)C", "Emax", 67],
  ["Cc1cc2c(cc1-n1cnc3cc(C(=O)O)ccc31)C(C)(C)CCC2(C)C", "Emax", 75],
  ["Cc1cc2c(cc1-n1ccc3cc(C(=O)O)ccc31)C(C)(C)CCC2(C)C", "Emax", 73],
  ["Cc1cc2c(cc1-n1c(C)nc3cc(C(=O)O)ccc31)C(C)(C)CCC2(C)C", "Emax", 94]
]}

====

Molecular target: Retinoic acid receptor RXR-alpha (Homo sapiens) (UniProt P19793)
Assay: Transactivation of RXRalpha (unknown origin) expressed in COS1 cells at 1 uM after 18 hrs by luciferase reporter gene assay relative to bexarotene
Assay type: cell-based
Conditions: COS-1
Efficacy overview

{"columns": ["Compound Structure", "Operator", "Efficacy / %"],
 "data": [
  ["Cc1cc2c(cc1-n1c(=S)[nH]c3cc(C(=O)O)ccc31)C(C)(C)CCC2(C)C", "<", 5],
  ["Cc1cc2c(cc1-n1c(C(F)(F)F)nc3cc(C(=O)O)ccc31)C(C)(C)CCC2(C)C", "=", 65],
  ["Cc1cc2c(cc1-n1c(N)nc3cc(C(=O)O)ccc31)C(C)(C)CCC2(C)C", "=", 35],
  ["Cc1cc2c(cc1-n1c(C)nc3cc(C(=O)O)ccc31)C(C)(C)CCC2(C)C", "=", 70],
  ["Cc1cc2c(cc1-n1c(=O)[nH]c3cc(C(=O)O)ccc31)C(C)(C)CCC2(C)C", "<", 5],
  ["CCN(c1ccc2c(c1)C(C)(C)CCC2(C)C)c1ccc(C(=O)O)cn1", "=", 96],
  ["Cc1cc2c(cc1-n1ccc3cc(C(=O)O)ccc31)C(C)(C)CCC2(C)C", "=", 67],
  ["Cc1cc2c(cc1-n1cnc3cc(C(=O)O)ccc31)C(C)(C)CCC2(C)C", "=", 52]
]}

====

Tested on: Plasma
Test: Plasma concentration in ICR mouse at 30 mg/kg, po by HPLC analysis
Format: ADME, organism-based
Set-up: dose 30 mg/kg, route oral
Conditions: read-out: Cp, in vivo

{"columns": ["Compound Structure", "concentration"],
 "data": [
  ["Cc1cc2c(cc1-n1c(C(F)(F)F)nc3cc(C(=O)O)ccc31)C(C)(C)CCC2(C)C", "> 6 µM"]
]}

====

Target: Retinoic acid receptor RXR-alpha (Homo sapiens) (UniProt P19793)
Assay: Transactivation of RXRalpha (unknown origin) expressed in COS1 cells at 10 uM after 18 hrs by luciferase reporter gene assay relative to bexarotene
Type: cell-based
Conditions: COS-1

{"columns": ["Compound Structure", "System Name", "Unit String", "Efficacy"],
 "data": [
  ["Cc1cc2c(cc1-n1c(C)nc3cc(C(=O)O)ccc31)C(C)(C)CCC2(C)C", "Retinoic acid receptor RXR-alpha (Homo sapiens) (UniProt P19793)", "%", 80],
  ["Cc1cc2c(cc1-n1cnc3cc(C(=O)O)ccc31)C(C)(C)CCC2(C)C", "Retinoic acid receptor RXR-alpha (Homo sapiens) (UniProt P19793)", "%", 72],
  ["Cc1cc2c(cc1-n1ccc3cc(C(=O)O)ccc31)C(C)(C)CCC2(C)C", "Retinoic acid receptor RXR-alpha (Homo sapiens) (UniProt P19793)", "%", 77],
  ["Cc1cc2c(cc1-n1c(C(F)(F)F)nc3cc(C(=O)O)ccc31)C(C)(C)CCC2(C)C", "Retinoic acid receptor RXR-alpha (Homo sapiens) (UniProt P19793)", "%", 71],
  ["CCN(c1ccc2c(c1)C(C)(C)CCC2(C)C)c1ccc(C(=O)O)cn1", "Retinoic acid receptor RXR-alpha (Homo sapiens) (UniProt P19793)", "%", 98]
]}
